Target: CIC-1 channels (Rattus norvegicus)
Construct: Gm was measured in individual fibres of whole rat soleus muscles; from tissue; host or cells: soleus muscle of adult (12-14 week old) Wistar rats
Sequence (P35524 whole entry): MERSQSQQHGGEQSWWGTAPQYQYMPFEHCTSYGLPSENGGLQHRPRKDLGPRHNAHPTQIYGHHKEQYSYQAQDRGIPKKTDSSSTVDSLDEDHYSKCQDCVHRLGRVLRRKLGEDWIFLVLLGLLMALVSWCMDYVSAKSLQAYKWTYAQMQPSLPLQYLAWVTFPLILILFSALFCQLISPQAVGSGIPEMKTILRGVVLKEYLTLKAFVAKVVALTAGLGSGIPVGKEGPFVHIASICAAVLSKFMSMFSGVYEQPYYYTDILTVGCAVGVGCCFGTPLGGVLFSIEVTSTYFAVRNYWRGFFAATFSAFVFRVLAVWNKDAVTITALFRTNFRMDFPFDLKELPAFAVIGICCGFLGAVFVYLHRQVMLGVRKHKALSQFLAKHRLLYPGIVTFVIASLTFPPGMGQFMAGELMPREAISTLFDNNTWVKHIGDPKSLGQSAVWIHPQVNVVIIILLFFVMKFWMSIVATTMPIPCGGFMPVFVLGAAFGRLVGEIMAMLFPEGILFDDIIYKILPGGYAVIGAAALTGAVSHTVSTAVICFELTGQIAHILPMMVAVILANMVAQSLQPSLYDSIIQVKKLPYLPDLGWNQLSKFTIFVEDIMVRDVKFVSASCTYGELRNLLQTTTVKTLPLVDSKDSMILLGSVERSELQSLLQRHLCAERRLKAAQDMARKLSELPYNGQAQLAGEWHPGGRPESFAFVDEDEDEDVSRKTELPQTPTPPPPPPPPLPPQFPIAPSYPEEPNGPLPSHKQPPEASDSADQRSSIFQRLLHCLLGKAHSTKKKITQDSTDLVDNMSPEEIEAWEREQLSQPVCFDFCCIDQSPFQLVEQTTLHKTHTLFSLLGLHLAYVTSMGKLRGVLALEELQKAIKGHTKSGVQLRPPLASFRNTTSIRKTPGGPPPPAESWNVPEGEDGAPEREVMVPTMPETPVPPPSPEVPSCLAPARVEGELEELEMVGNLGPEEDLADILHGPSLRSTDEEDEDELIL
Experiment: Electrophysiological measurement of compound inhibition of CIC-1 in rat muscle (Gm, EC50)
Assay type: cell-based
Details: rat soleus muscle fibres, three micro-electrode Gm measurement; read-out: EC50 (inhibition of ClC-1 ion channel, Gm)
pEC50: −log10 of the molar value.
# pEC50 values compiled below
Measured parameter: pEC50

>>> print(df.to_string())
                                   molecule                                 tgt  measured_parameter  numeric_readout
0  [2H]CC([2H])[C@H](Oc1ccc(Br)cc1)C(=O)O (some centres unmarked)  CIC-1 channels (Rattus norvegicus)               pEC50             5.42
1        [2H][C@@](CF)(Oc1ccc(Br)cc1)C(=O)O  CIC-1 channels (Rattus norvegicus)               pEC50             5.28
